A set of compounds tested on UniProt:P43115, with measured pKi:
pKi: −log10 of the molar value.
OBSERVED_PROPERTY: pKi

Consider the reported pKi for these compounds:
C[C@]1(c2ccc(-c3cc(F)c4[nH]nc(C5CC5)c4c3)[nH]c2=O)CCCNC1=O : 7.53
Cn1cnc2cc(-c3ccc([C@@]4(C)CCCNC4=O)c(=O)[nH]3)cc(Cl)c21 : 8.11

a. Cn1ncc2c(Cl)cc(-c3ccc([C@@]4(C)CCNC4=O)c(=O)[nH]3)cc21
b. Cn1ncc2c(Cl)cc(-c3ccc([C@@]4(C)CCCNC4=O)c(=O)[nH]3)cc21
Compare a and b by numeric pKi and name the larger one. Please reply using the label of the selected record.
b
